Ref: the RNAGym collection of RNA variant scans (doi:10.1073/pnas.2313332121)

B1: TPR t1 (parent)
chain: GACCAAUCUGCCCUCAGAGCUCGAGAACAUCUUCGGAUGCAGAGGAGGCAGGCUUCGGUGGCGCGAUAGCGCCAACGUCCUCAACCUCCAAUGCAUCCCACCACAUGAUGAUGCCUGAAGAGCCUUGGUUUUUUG

variants of: B1; assay: polymerase ribozyme fitness, log enrichment relative to wild type (log ratio); higher = more active; in vitro selection for triplet polymerase activity
Experimental readout: polymerase ribozyme fitness (log ratio)
Respond with the number and no other words.

Worked cases, polymerase ribozyme fitness (log ratio) given:
1) GAUCAAUCUGCCCACAGAGCUCGAGAACAUCUUCGGAUGCAGAGGAGGCAGGGUUCGGUGGCGUGAUAGCGCCAACGUCCUCAACCUCCAAUGCAUCCCACCACAUGAUGAUGCCUGAAAAGCCUUGGUUUUUUG [C3U U14A C53G C64U G120A]
0.544
2) GACCAAUCUGCCCUCAGAGCUCGAGAACAUCUUCGGAUGCGGAGGAGGCAGGCUUCGGUGUCGCGAUAGCGCCAACGUCCUCAACCUCCAAUGCAUCCCACCACAUGAUGAUGCCUGAACAGCCUUGGUUUUUUG [A41G G61U G120C]
0.573
3) GACCAUUCUGCCCUCAGAGCUCGAGAACAUCUUCGGAUGCAGAGGAGGCAGGAUUCGGUGGCUCGAUAGCGCCAACGUCCUCAACCUCCAAUGCAUCCCUCCACAUGAUGAUGCCUGAAGAGCCUUGGUUUUUUG [A6U C53A G63U A100U]
-3.98
4) GACCAAUCUGCCCACAAAGGUCGAGAACAUCUUCGGAUGCAGAGGAGGCAGGCUUCGGUGGCGCGAUAGCGCCAACGUCCUCAACCUCCAAUGCAUCCCACCACAUGAUGAUGCUUGAAGAGCCUUGGUUUUUUG [U14A G17A C20G C115U]
-5.9
5) GACCAAUCUGCCCUCAGAGCUCGAGAACAUCUUCGGAUGCAUAGGAGGCAGGCUUCGGUGUCGCGAUAGCGCCAACGUCCUCAACCUGCAAUGCAUCCCAACACAUGAUGAUGCCUGAACAGCCUUGGUUUUUUG [G42U G61U C88G C101A G120C]
-3.56
6) GACCAAUCUGCCCUCAGAGCUCGAGAACAUCUUCGGAUGCAGAGGAGGCAGGCUUCGGUGGCGCGAUAGUGCCAACGUCCUCAACCUCCAAUGCAUCCCACCACAUGAUCAUGCCUGAAGAGCCUUGGUUUUUUG [C70U G110C]
-4.32

Q) I am curious: what polymerase ribozyme fitness (log ratio) value has been reported for GACCAAUCUGCCAUCAGAGCUCGAGAACAUCUUCGGAUGCAGAGGAGGCAGGCUUCGGUGGCGCGAUAGCGCCAACGUCCUCAACCUCCAAUGGAUCCCAACACAUGAUGAUGCCUGAAGAGCCUUGGUUUUUUG [C13A C94G C101A] ?
A) -4.8

Q) Next up: GACCAAUCUGCCCUCAGAGCUCGAGAACAUCUUCGGAUGCAGUGGAGGCAGGCUUCGGUGGCGCGAUAGCACCAACGUCCUCAACCUCCAGUGCAUCCCACCACAUGAUGAUGCCUGAAGAGCCUUGGUUUUUUG [A43U G71A A91G]
A) -3.35

Q) Subsequent entry: GACCAAUCUGCCCUCAGAGCUCGAGAACAUCUUCGGAUGCAGAGGAGGCAGGCUUGGGUGGCGCGAUAGCGCCAACGUCCUCAACCUCCAAUGCAUCCCACCACAUGAUGAUGCUUGAAGAGCCUUGGUUUUUUC [C56G C115U G135C]
A) -1.67

Q) Please give the result for GACCAAUCUGCCCUCAGAGCUCGAGAACAUCUUCGGAUGCAGAGGAGGCAGGCUUCGGUGGCGCGAUAGCGCCAACGUCCUCAACCUCCAAUGCAUCUCACCACAUGAUGAUGCCUGAAGCGCCAUGGAUUUUUG [C98U A121C U125A U129A] too.
A) -1.75

Q) Subsequent entry: GACCAAGCUGCCCUCAGAGCUCGAGAACAUCUUCGGAUGCAGAGGAGGCAGGCUUCGGUGGCACGAUAGCGCCAACGUCCUCAACGUCCAAUGAAUCCCACCACAUGAUGAUUCCUGAAGAGCCUUGGUUUUUUG [U7G G63A C86G C94A G113U]
A) -5.43
